# Tested on: GTPase KRas (Homo sapiens), P01116 [G12C]
# Sequence (P01116 whole entry G12C): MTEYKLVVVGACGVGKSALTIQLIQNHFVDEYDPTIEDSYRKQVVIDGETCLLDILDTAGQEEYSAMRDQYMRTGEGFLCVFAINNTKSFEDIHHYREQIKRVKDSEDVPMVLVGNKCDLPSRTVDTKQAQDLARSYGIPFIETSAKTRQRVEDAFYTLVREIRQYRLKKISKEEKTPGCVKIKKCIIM
# test.protocol: Inhibition of KRAS G12C mutant (unknown origin) assessed as pseudo first order rate constant incubated for 0.02 to 20 hrs in presence of GDP by rapidfire mass spectrometry analysis
The threshold is 80 M⁻¹ s⁻¹. Values of K beneath it are tagged y; values meeting or exceeding it are tagged n.

I'd appreciate it if you could check whether `C=CC(=O)N1CC(NC(=O)Cn2cc(C(=O)N3CCc4cc(F)ccc4C3)c3cc(Br)ccc32)C1` has K smaller than 80 M⁻¹ s⁻¹.
n

Is 80 M⁻¹ s⁻¹ strictly greater than the molecule's reported K? molecule: `C=CC(=O)N1CC(NC(=O)Cn2cc(C(=O)N3CCc4c(Cl)cccc4C3)c3cc(Br)ccc32)C1`
n

Would you kindly verify if K of `C=CC(=O)N1CC(NC(=O)Cn2c(C)c(C(=O)N3CCc4c(cccc4OC)C3)c3cc(Cl)ccc32)C1` is strictly less than 80 M⁻¹ s⁻¹?
y

Say whether its K is strictly beneath 80 M⁻¹ s⁻¹. Entry: `C=CC(=O)N1CC(NC(=O)Cn2cc(C(=O)N(C)Cc3ccccc3)c3cc(Br)ccc32)C1`
y

Report whether reported K is lower than 80 M⁻¹ s⁻¹ (strictly) for `C=CC(=O)N1CC(NC(=O)Cn2cc(C(=O)N3CCc4ccccc4C3)c3cc(Br)ccc32)C1`
n

Does `C=CC(=O)N1CC(NC(=O)Cn2cc(C(=O)N3CCc4c(F)cccc4C3)c3cc(Br)ccc32)C1` have K strictly under 80 M⁻¹ s⁻¹?
n

I'd appreciate it if you could check whether `C=CC(=O)N1CC(NC(=O)Cn2cc(C(=O)NCc3ccccc3)c3cc(Br)ccc32)C1` has K smaller than 80 M⁻¹ s⁻¹.
y

Please indicate whether the reported K of `C=CC(=O)N1CC(NC(=O)COc2ccc(Br)cc2)C1` is strictly below 80 M⁻¹ s⁻¹.
y

Hello, is K of the following molecule strictly smaller than 80 M⁻¹ s⁻¹? `C=CC(=O)N1CC(NC(=O)Cn2ccc3cc(Br)ccc32)C1`
y

Given `C=CC(=O)N1CC(NC(=O)Cn2cc(C(=O)N3CCc4cc(Cl)ccc4C3)c3cc(Br)ccc32)C1` , is recorded K strictly lower than 80 M⁻¹ s⁻¹?
n

Field: below-cutoff. Rule: recorded K strictly less than 80 M⁻¹ s⁻¹. Subject: `C=CC(=O)N1CC(NC(=O)Cn2c(C)c(C(=O)N3CCc4c(cccc4OC)C3)c3cc(Br)ccc32)C1`
n

For this molecule, is K lower than 80 M⁻¹ s⁻¹? `C=CC(=O)N1CC(NC(=O)Cn2c(C)c(C(=O)N3CCc4c(cccc4OC)C3)c3cc(Cl)cc(C)c32)C1`
n

For this molecule, is K lower than 80 M⁻¹ s⁻¹? `C=CC(=O)N1CC(NC(=O)Cn2cc(C(=O)N3CCc4c(cccc4OC)C3)c3cc(Br)ccc32)C1`
n

Given `C=CC(=O)N1CC(NC(=O)Cn2c(C3CC3)c(C(=O)N3CCc4c(cccc4OC)C3)c3cc(Cl)cc(C)c32)C1` , is recorded K strictly lower than 80 M⁻¹ s⁻¹?
n

# TODO verify K < 80 M⁻¹ s⁻¹ strictly for this molecule: `C=CC(=O)N1CC(NC(=O)Cn2cc(C(=O)NCCc3ccccc3)c3cc(Br)ccc32)C1`
y

Consider the molecule `C=CC(=O)N1CC(NC(=O)COc2ccc(Br)cc2NC(=O)c2cc(C)no2)C1` . Is its K strictly less than 80 M⁻¹ s⁻¹?
y

Please state whether K is below 80 M⁻¹ s⁻¹ for `C=CC(=O)N1CC(NC(=O)Cn2c(C3CC3)c(C(=O)N3CCc4c(cccc4OC)C3)c3cc(Br)ccc32)C1`
n

Lab note: confirm whether the reported K for this molecule is below 80 M⁻¹ s⁻¹, equality not counting. molecule: `C=CC(=O)N1CC(NC(=O)Cn2cc(C(=O)N3CCc4c(cccc4OC)C3)c3cc(Br)cc(C)c32)C1`
n

Regarding `C=CC(=O)N1CC(NC(=O)Cn2c(C)c(C(=O)N3CCc4c(cccc4OC)C3)c3cc(Br)cc(C)c32)C1` , kindly confirm whether its K is beneath 80 M⁻¹ s⁻¹.
n

I wonder whether `C=CC(=O)N1CC(NC(=O)COc2ccc(Br)cc2C(=O)N2CC=C(c3ccccc3)C2)C1` has K below 80 M⁻¹ s⁻¹. Can you tell?
y

From: ChEMBL document CHEMBL4364340
